# system.tested: UniProt P35918
# procedure.text: GST-FLK-1 bioassay (bio flkGST)
# Format: biochemical
value.kind: IC50

compound | IC50
Cc1[nH]c2ccccc2c1C=C1C(=O)Nc2ccc(S(=O)(=O)N(C)C)cc21 [IN-073] | > 20000 nM
CN(C)S(=O)(=O)c1ccc2c(c1)C(=Cc1c[nH]c3ccccc13)C(=O)N2 [IN-072] | > 20000 nM
Cc1[nH]c2ccccc2c1C=C1C(=O)Nc2ccc(S(N)(=O)=O)cc21 [IN-066] | > 20000 nM
O=C1Nc2ccc(S(=O)(=O)Nc3ccccc3)cc2C1=Cc1cc2cc(OCCN3CCCC3)ccc2[nH]1 [IN-044] | 180 nM
O=C1Nc2cccc(CCO)c2C1=Cc1cc2cc(OCCN3CCOCC3)ccc2[nH]1 [IN-033] | < 9 nM
O=C1Nc2ccc(S(=O)(=O)Nc3cccc(Cl)c3)cc2C1=Cc1cc2cc(OCCN3CCCC3)ccc2[nH]1 [IN-047] | 390 nM

Next:
Need IC50, item O=C1Nc2ccc(S(=O)(=O)N3CCc4cc(Br)ccc43)cc2C1=Cc1cc2cc(OCCN3CCCC3)ccc2[nH]1 [IN-052]
1020 nM

Each recorded value in this set is attributed to patent US6706709B2.
